- Tested on: P. aeruginosa
- measurement notes: MIC, modified CLSI broth microdilution in CAA medium without or with […] human serum (Table 4); further: CAA supplemented with 2.5% human serum
- Format: cell-based, Pseudomonas aeruginosa
- assay context: CAA supplemented with […] human serum
reported property: CAA/HuS MIC

- GN93: lysin-AMP construct: cationic peptide (SEQ ID NO: 120) and linker N-terminal to GN14 lysin (SEQ ID NO: 62) (protein) MKFFKFFKFFKAGAGAGAGAGAGAGAGASNNELPWVAEARKYIGLREDTSKTSHNPKLLAMLDRMGEFSNESRAWWHDDETPWCGLFVGYCLGVAGRYVVREWYRARAWEAPQLTKLDRPAYGALVTFTRSGGGHVGFIVGKDARGNLMVLGGNQSNAVSIAPFAVSRVTGYFWPSFWRNKTAVKSVPFEERYSLPLLKSNGELSTNEA: 8000 µg/mL
- GN239: lysin-AMP construct: IGEM linker and RI18 peptide C-terminal to GN37 lysin (SEQ ID NO: 14) (protein) MTYTLSKRSLDNLKGVHPDLVAVVHRAIQLTPVDFAVIEGLRSVSRQKELVAAGASKTMNSRHLTGHAVDLAAYVNGIRWDWPLYDAIAVAVKAAAKELGVAIVWGGDWTTFKDGPHFELDRSKYGGGSGGGGSGGGSRKKTRKRLKKIGKVLKWI: 250 µg/mL
